All values here come from the DeepSol protein solubility set.

test: soluble on expression in E. coli; label from the status in PepcDB or PDB records
readout: soluble on expression in E. coli

Below are worked cases with known answers.
| recordSequence | readout | reportedValue |
| --- | --- | --- |
| MFSVRRYRHKRNSLNIDTREITLEPADNARLLSLCGPFDDNIKQLERRLGIEINRRDNHFKLTGRPICVTAATDILRSLYVDTAPMRGQTQDIEPEQIHLAIKEARVLEQSAESVPDYGKAINIKTKRGVIKPRTPNQAQYIANILDHDITFGVGPAGTGKTYLAVAAAVDALERQEIRRILLTRPAVEAGEKLGFLPGDLSQKVDPYLRPLYDALFEMLGFEKVEKLIERNVIEVAPLAYMRGRTLNDAFIILDESQNTTIEQMKMFLTRIGFNSKAVITGDVTQIDLPRNTKSGLRHAIEVLAEVDEISFNFFHSEDVVRHPVVARIVNAYEAWEEAEQKRKAALAAERKREAQEQEQK | soluble on expression in E. coli | not soluble |
| MNLMDLANEHDALILAHNYQTPEIQDVAHHVGDSLALAKIAAESQASTIVLCGVYFMAETTKILSPEKRVIIPEPEAGCSLASSITAEQLRAWKAEHPEAAVVAYVNTTAEVKALSDVCCTSSNAVRVVESIDPDRDILFLPDQFLGAHVQRETGRKNIHVWLGECHVHADISPTHITEMAHNNPQADLYVHPECGCTTSALWLASQGDIPQARILSTGGMMEAARKTAASTVLVATEIGMLHQLRKANTATDFIPVNPYAACPFMQMITMEKLEKALVEGHHEVHVDPVLAQRARGAVEAMITL | soluble on expression in E. coli | not soluble |
| MRAHTLSRQLREGNLFAEQCPSREVLKHVTSRWGVLILVALRDGTHRFSDLRRKMGGVSEKMLAQSLQALEQDGFLNRVSYPVVPPHVEYSLTPLGEQVSDKVAALADWIELNLPQVLAQRERLSDGG | soluble on expression in E. coli | soluble |
| MAHHHHHHMRPSSHRRPKSSAASDVGRRIRYSDAPPWDRSIRVNGDRALSAGRASRRGPEMMKAKLQGTPARPSHCNLVTTQAATLVATVPPVNEPQVELMSQLQDVVVRLSQSAVGEKQRLAHMQQRLDAYAALMREQDRMIDELRGMNIRLQKERDALILFRQQSLNHDLHLMNNLENDGGIDEEARRAYAKYEGQNNSYGTPCNGSLGAMTPRSRGFVRSLVAQLRDERRKRLEVEEQSSRMIGEQQLTIQRLEDRLRPQVVAPRSVLVARLESPHVSSHQRASNEEKDAVNTPLQCPCVDSVSAPMSSPNFSVVNQEKRLTEVNPMAPAVPPIPLPERNKEAVITEQVHQSPAVSMDQQITPPLEVPLKIHSTSYDDAAAILFDIRKRHGL | soluble on expression in E. coli | not soluble |
| MSLRPSAPELDHAKRQRLARLPKPVPLGVCTLREQRWVVLDLETSGLNPNRDQVLSIGAVAIEDGAIDFAQQFERTLHRPLQKTNASVLIHGLGPSALAAGCDPAEALLDLLDFIGNSPVLAFHAPFDQRMLARALKETLGHRLQSMFLDVAELAPMLNPDTVLREAGLDDWVARFGLQVEERHHASADAQVTAELALILFSQARRQQLDSPLQLEQRLRGWRRRKMQSHGEGHHHHHH | soluble on expression in E. coli | soluble |

API: the following record is the query input.
So for "MLLTLNALPFVLVNCGGKKKPAPPPKAAAKPMAAPAGGAGGAGGAGGAGKSDSFDSKKQDIPSSKKEEPVAPKKEDEGNYEELAIPQ" , the logged soluble on expression in E. coli turned out to be not soluble
